# measurement.notes: chemical genetic growth profiling, strain panel (AID 1159580);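 further: tested at 20 µM; growth read once vehicle control cultures reached saturation at 30 °C; 1 = growth at the plate median or of vehicle wells; lower values mean less growth of the strain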
# condition.summary: S. cerevisiae deletion strains, growth OD, locus YIR030C, strain dcg1, active compounds read low
Hit rate of the full screen: of about 5,500 compounds, about 2,000 (36%) were called active. Not shown: some 18% with an inconclusive outcome. The list shows a part of the results.

- compound: "COc1cc(S(C)=O)ccc1-c1nc2ncccc2[nH]1 (stereo not drawn)"
  normalized growth: 0.988
- compound: "COc1ccc(C(=O)CC(=O)c2ccc(C(C)(C)C)cc2)cc1"
  normalized growth: 0.998
- compound: "CCCC(CCC)C(=O)O"
  normalized growth: 0.966
- compound: "Clc1ccc2c(c1)C(N1CCNCC1)=Nc1ccccc1O2"
  normalized growth: 0.986
- compound: "CC(CCC(=O)O)[C@H]1CCC2C3C(C[C@H](O)[C@@]21C)[C@@]1(C)CC[C@@H](O)C[C@H]1C[C@H]3O (stereo partly drawn)"
  normalized growth: 1
- compound: "Cc1cc(C)cc(OCC2CNC(=O)O2)c1 (stereo not drawn)"
  normalized growth: 1.02
- compound: "COc1cc2c(cc1-c1cc3cc4ccoc4cc3oc1=O)OCO2"
  normalized growth: 0.989
- compound: "COc1cc([C@@H]2c3cc4c(cc3[C@H](OC(C)=O)[C@H]3COC(=O)[C@@H]23)OCO4)cc(OC)c1OC"
  normalized growth: 1.01
- compound: "COC(=O)c1c(C)cc(OC(=O)c2c(C)c(Cl)c(O)c(C=O)c2O)c(C)c1O"
  normalized growth: 0.983
- compound: "COc1cc(C)c(C(=O)Oc2cc(C)c(C(=O)O)c(O)c2C)c(OC)c1C"
  normalized growth: 1.01
- compound: "Cc1cccc(Nc2ccncc2S(=O)(=O)NC(=O)NC(C)C)c1"
  normalized growth: 1.02
- compound: "CN(C)CCC(c1ccc(Br)cc1)c1ccccn1 (stereo not drawn)"
  normalized growth: 0.985
- compound: "Cc1nc2sccn2c(=O)c1CCN1CCC(=C(c2ccc(F)cc2)c2ccc(F)cc2)CC1"
  normalized growth: 0.917
- compound: "c1ccc2c(c1)CN1CCCC1=N2"
  normalized growth: 0.985
- compound: "Nc1cc(-c2ccncc2)c[nH]c1=O"
  normalized growth: 0.988
- compound: "CC1=C2[C@H]3OC(=O)[C@@H](C)[C@@H]3CC[C@@]2(C)C=CC1=O"
  normalized growth: 1.02
- compound: "COc1cc2c(cc1/C=C/C(=O)c1cc(OC)c(OC)cc1OC)OCO2"
  normalized growth: 1.01
- compound: "CCOC(=O)[C@H](CCc1ccccc1)N[C@@H](C)C(=O)N1Cc2ccccc2C[C@H]1C(=O)O"
  normalized growth: 1.01
- compound: "O=C(Nc1ccccc1)Nc1ccccc1"
  normalized growth: 0.975
- compound: "COC(=O)c1c(C)cc(OC(=O)c2c(C)cc(O)c(C=O)c2O)c(C)c1O"
  normalized growth: 1.03
- compound: "CN1CCN(C2=Nc3ccccc3Oc3ccc(Cl)cc32)CC1"
  normalized growth: 0.991
- compound: "CCCC(C(=O)OCCN(CC)CC)(c1ccccc1)c1ccccc1"
  normalized growth: 0.989
- compound: "OC1=Cc2c(O)cc(O)cc2OC1(O)c1ccc(O)c(O)c1 (stereo not drawn)"
  normalized growth: 0.989
